System: DRAK2
Construct: gene STK17B
Settings: concentration: 1 μM,replicates: in singlicate; n = 1;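 further: KINOMEscan kinase panel screen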
Recorded Endpoint: %Inh (%)
Unit % implied. Number only.

What does the data say about its %Inh? Entry: CCNCC(Cc1ccccc1)NC(=O)c1cc(Br)c(-c2ccnc3[nH]ccc23)s1.Cl.Cl (stereo not shown)
0

What does the data say about its %Inh? Entry: C[C@@H]1CCN(C(=O)N2CCCC2)C[C@@H]1N(C)c1ncnc2[nH]ccc12
38

What does the data say about its %Inh? Entry: OCCn1cc(-c2cnc3nnn(Cc4ccc5ncccc5c4)c3n2)cn1
12

What does the data say about its %Inh? Entry: COC(=O)c1cccc(NC(=O)NC2CCN(c3ccnc(Nc4cc(OC)c(OC)c(OC)c4)n3)C2)c1 (stereo not shown)
0

What does the data say about its %Inh? Entry: COC(=O)c1cccc(NC(=O)NC2CCN(c3ccnc(NCc4ccc(F)cc4)n3)CC2)c1
34

What does the data say about its %Inh? Entry: Cc1ccc(Nc2ccnc(Nc3ccc4c(c3)CS(=O)(=O)C4)n2)cc1O.Cl
57

What does the data say about its %Inh? Entry: CN(c1cccc(CNc2nc(Nc3ccc4c(c3)CC(=O)N4)ncc2C(F)(F)F)c1)S(C)(=O)=O
97.5

---

Tested on: PIK3CD
Settings: concentration: 1 μM,replicates: in singlicate; n = 1
Entries and their measured %Inh follow.

{"Molecule": "COc1cc(Nc2nccc(N3CCC(NC(=O)c4cccc(C#N)c4)C3)n2)cc(OC)c1OC (stereo not drawn)", "%Inh": "0%"}
{"Molecule": "CC(C(=O)NC1CCN(c2ccnc(Nc3ccc(F)cc3)n2)C1)c1ccc(Cl)cc1 (stereo not drawn)", "%Inh": "15%"}

With those in mind, consider the next molecule.
What does the data say about its %Inh? Entry: C[C@@H](Oc1cc(-n2cnc3ccc(-c4ccncc4)cc32)sc1C(N)=O)c1ccccc1Cl
87%

---

Test system: LTK
Details: concentration: 1 μM,replicates: in singlicate; n = 1
Recorded Endpoint: %Inh (%)
Unit % implied. Number only.

Before answering, review these 3 worked examples.
{"Structure Smiles": "Cn1ccc2ncnc(Oc3ccc(NC(=O)Nc4cc(C(C)(C)C)on4)c(Cl)c3)c21", "%Inh [%]": 39}
{"Structure Smiles": "Cc1ccc(C(=O)Nc2ccc(Oc3ccc4nc(NC(=O)C5CC5)cn4c3)c(F)c2)c(=O)n1-c1ccccc1", "%Inh [%]": 38}
{"Structure Smiles": "CC(C)c1nc(-c2cccc(NS(=O)(=O)c3ccccc3)c2)c(-c2ccnc(Nc3ccc4c(c3)CN(C)CC4)n2)s1", "%Inh [%]": 5}

What does the data say about its %Inh? Entry: COc1cc2ncn(-c3cc(OCC4CCCCC4)c(C(N)=O)s3)c2cc1OC
10

What does the data say about its %Inh? Entry: O=C1NCCc2[nH]c(-c3ccncc3)cc21
0

---

System: ULK2
Conditions: concentration: 1 μM,replicates: in singlicate; n = 1
Recorded Endpoint: %Inh
Please answer in the form of a number followed by its unit of measurement.

Before answering, review these 4 worked examples.
{"Structure Smiles": "CS(=O)(=O)Nc1ccc(-c2ccnc3[nH]ccc23)cc1", "Experimental System": "ULK2", "%Inh": "10%"}
{"Structure Smiles": "O=C(Nc1cccc(C(F)(F)F)c1)c1cccc(Oc2ccc3nccn3n2)c1", "Experimental System": "ULK2", "%Inh": "10%"}
{"Structure Smiles": "CN(c1ccc2c(c1)nc(NCc1ccc(F)cc1)n2C)c1ccnc(Nc2ccc(CS(C)(=O)=O)cc2)n1.Cl", "Experimental System": "ULK2", "%Inh": "13%"}
{"Structure Smiles": "O=C(NCC1CC1)c1ccc(-c2cc(C(=O)NC3CC3)ccc2F)cc1", "Experimental System": "ULK2", "%Inh": "0%"}

What does the data say about its %Inh? Entry: Cc1ccc(CC(=O)N2CCc3cc(-c4cn(C)c5ncnc(N)c45)ccc32)cc1
35%
